# credit: paper PMC4336329

Tested Target: human ether-à-go-go-related gene (hERG) potassium channel (human, UniProt Q12809)
Sequence (Q12809 whole entry, looked up): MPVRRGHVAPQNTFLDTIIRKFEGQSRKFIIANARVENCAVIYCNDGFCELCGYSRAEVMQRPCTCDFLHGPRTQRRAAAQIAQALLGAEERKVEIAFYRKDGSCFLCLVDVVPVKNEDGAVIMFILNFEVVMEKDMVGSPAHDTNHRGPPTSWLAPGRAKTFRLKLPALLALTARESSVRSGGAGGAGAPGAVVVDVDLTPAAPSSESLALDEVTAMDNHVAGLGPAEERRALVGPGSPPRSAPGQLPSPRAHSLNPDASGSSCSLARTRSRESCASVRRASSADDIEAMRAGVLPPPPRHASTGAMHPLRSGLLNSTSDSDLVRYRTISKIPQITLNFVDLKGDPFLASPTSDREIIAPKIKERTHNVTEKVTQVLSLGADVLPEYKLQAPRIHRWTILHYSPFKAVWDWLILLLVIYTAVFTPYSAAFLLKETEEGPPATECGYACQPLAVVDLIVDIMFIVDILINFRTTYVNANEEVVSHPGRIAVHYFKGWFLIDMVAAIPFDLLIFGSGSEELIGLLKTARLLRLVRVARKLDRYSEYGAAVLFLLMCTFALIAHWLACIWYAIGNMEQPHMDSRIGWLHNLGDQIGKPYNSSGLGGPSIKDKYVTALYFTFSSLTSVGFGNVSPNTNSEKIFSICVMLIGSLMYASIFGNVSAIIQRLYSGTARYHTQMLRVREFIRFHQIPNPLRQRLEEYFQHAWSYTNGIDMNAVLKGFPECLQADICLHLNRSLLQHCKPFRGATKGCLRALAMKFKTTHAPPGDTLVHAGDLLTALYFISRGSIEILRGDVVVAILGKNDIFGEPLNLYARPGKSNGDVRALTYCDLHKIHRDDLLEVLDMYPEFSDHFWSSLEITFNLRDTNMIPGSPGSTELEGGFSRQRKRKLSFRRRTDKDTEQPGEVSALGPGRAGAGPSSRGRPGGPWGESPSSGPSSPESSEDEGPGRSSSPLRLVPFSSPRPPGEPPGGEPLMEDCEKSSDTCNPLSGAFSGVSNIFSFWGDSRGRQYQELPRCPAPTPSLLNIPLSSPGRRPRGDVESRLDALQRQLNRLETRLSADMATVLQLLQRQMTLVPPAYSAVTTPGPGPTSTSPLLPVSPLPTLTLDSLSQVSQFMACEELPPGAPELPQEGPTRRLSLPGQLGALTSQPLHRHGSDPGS
Protocol Details: primary screen, population patch clamp on CHO cells stably expressing hERG; higher = less effect of the substance
Screen size: about 310,000 compounds; about 2,200 (0.71%) showed an effect of 50% or more. Effects have a minus sign here. Shown is part of a subset that was picked to be rich in strong results.
Readout: hERG current change (%, negative = inhibition) at 1uM (%)

> print(dat)
                                   compound  observed.result
1  COCCCn1c(=NC(C)=O)c(C#N)cc2c(=O)n3cccc(C)c3nc21            -7.03
2  COc1ccc(CCNC(=O)c2cc3c(=O)n4cccc(C)c4nc3n(CCCN3CCOCC3)c2=N)cc1            -85.1
3  Cc1cccn2c(=O)c3cc(C#N)c(=NC(=O)c4cccs4)n(CC(C)C)c3nc12             7.98
4  COc1ccc(CCNC(=O)c2cc3c(=O)n4ccccc4nc3n(CCCN3CCOCC3)c2=N)cc1OC            -39.4
5  COc1ccc(CNC(=O)C(C)Sc2nc3ccccc3c(=O)n2CC2CCCO2)cc1 (stereo not drawn)            -17.5
6  Cc1cccn2c(=O)c3cc(C#N)c(=NC(=O)c4ccncc4)n(CCCOC(C)C)c3nc12            -89.7
7  COc1ccccc1CNC(=O)CSc1nc2ccccc2c(=O)n1CCCN1CCOCC1            -6.17
8  COCCCn1c(=NC(=O)c2ccncc2)c(C#N)cc2c(=O)n3cccc(C)c3nc21            -53.3
9  Cc1cccn2c(=O)c3cc(C#N)c(=NC(=O)c4cccs4)n(CCCOC(C)C)c3nc12            -26.1

---

Tested Target: human ether-à-go-go-related gene (hERG) potassium channel (human)
Protocol Details: primary screen, population patch clamp on CHO cells stably expressing hERG; higher = less effect of the substance
Out of some 310,000 compounds screened, about 2,200 (0.71%) showed an effect of 50% or more. The effect is printed as a negative number. Many of the other results were omitted from the sample, so strong results are more common in it than they were.
# hERG current change (%, negative = inhibition) at 1uM listing for each entry below
Readout: hERG current change (%, negative = inhibition) at 1uM (%)

> print(dat)
                                  mol.smiles                             tested.target  unit.abbrev  observed.result
 1  CC(C)c1ccc(/C=C(\NC(=O)c2ccccc2)C(=O)NCCN2CCOCC2)cc1  human ether-à-go-go-related gene (hERG) potassium channel (human)            %            -21.9
 2      CN1C(=O)CSc2ccc(NC(=O)Nc3ccccn3)cc21  human ether-à-go-go-related gene (hERG) potassium channel (human)            %             8.01
 3  Cc1ccc(C(=O)N/C(=C\c2ccccc2)C(=O)NCCN2CCOCC2)cc1  human ether-à-go-go-related gene (hERG) potassium channel (human)            %            -38.7
 4    Cc1cc(C)n2nc(-c3cnn(C)c3C(F)(F)F)cc2n1  human ether-à-go-go-related gene (hERG) potassium channel (human)            %             1.96
 5  CC(C)c1ccc(/C=C(\NC(=O)c2ccccc2)C(=O)NCCCN2CCOCC2)cc1  human ether-à-go-go-related gene (hERG) potassium channel (human)            %            -35.8
 6  Cn1c(=O)cc(OCCCC(=O)Nc2ccc3c(c2)OCCO3)c2ccccc21  human ether-à-go-go-related gene (hERG) potassium channel (human)            %             17.2
 7             Cn1c(CSCc2ccc(F)cc2)n[nH]c1=S  human ether-à-go-go-related gene (hERG) potassium channel (human)            %             13.6
 8  Cc1ccc(C(=O)N/C(=C\c2ccc(Cl)cc2)C(=O)NCCN2CCOCC2)cc1  human ether-à-go-go-related gene (hERG) potassium channel (human)            %            -70.6
 9  CCN(CC(=O)Nc1c(F)cccc1F)C(=O)CSC(=S)N1CCCC1  human ether-à-go-go-related gene (hERG) potassium channel (human)            %             6.34
10  Cc1ccc(C(=O)N/C(=C/c2ccc(C(C)C)cc2)C(=O)NCCCN2CCOCC2)cc1  human ether-à-go-go-related gene (hERG) potassium channel (human)            %              -22
11  COc1ccc(S(=O)(=O)Nc2ccc(-c3ccc(N4CCCC4)nn3)cc2)cc1C  human ether-à-go-go-related gene (hERG) potassium channel (human)            %             11.6
12     Cc1ccc(C)n1-c1ccc(C(=O)Nc2ccccc2F)cc1  human ether-à-go-go-related gene (hERG) potassium channel (human)            %             10.7
13  O=C(NCCN1CCOCC1)/C(=C/c1ccccc1)NC(=O)c1ccccc1  human ether-à-go-go-related gene (hERG) potassium channel (human)            %             3.35
14                  O=C1NCCc2c1[nH]c1ccccc21  human ether-à-go-go-related gene (hERG) potassium channel (human)            %            -4.21
15  O=C(NCCN1CCOCC1)/C(=C/c1ccc(Cl)cc1)NC(=O)c1ccccc1  human ether-à-go-go-related gene (hERG) potassium channel (human)            %            -83.1
16  O=C(CSc1n[nH]c(-c2cccnc2)n1)Nc1ccccc1[N+](=O)[O-]  human ether-à-go-go-related gene (hERG) potassium channel (human)            %             11.9
17  Cc1ccc(C(=O)N/C(=C\c2ccc(F)cc2)C(=O)NCCN2CCOCC2)cc1  human ether-à-go-go-related gene (hERG) potassium channel (human)            %            -79.1
18  O=[N+]([O-])c1ccc(CS(=O)(=O)N2CCN(c3ccccc3)CC2)cc1  human ether-à-go-go-related gene (hERG) potassium channel (human)            %            -3.45
19  CCn1cc(/C=C/C(=O)Nc2c(C)nn(Cc3ccccc3)c2C)cn1  human ether-à-go-go-related gene (hERG) potassium channel (human)            %             6.45
20         Cc1sc2nc[nH]c(=O)c2c1-c1ccc(F)cc1  human ether-à-go-go-related gene (hERG) potassium channel (human)            %             17.2

---

Tested Target: human ether-à-go-go-related gene (hERG) potassium channel (human)
Protocol Details: primary screen, population patch clamp on CHO cells stably expressing hERG; higher = less effect of the substance
In all, about 310,000 compounds went through this assay and about 2,200 (0.71%) showed an effect of 50% or more. Effects have a minus sign here. This excerpt belongs to a sample that is enriched for strong results.
Readout: hERG current change (%, negative = inhibition) at 1uM (%)

> print(dat)
                                    compound  observed.result
 1  CC(Oc1ccc(Cl)cc1Cl)c1ccnc(N)n1 (centres unmarked)             16.2
 2  COc1ccc(C(=O)N2CCC(C(=O)c3c(C)cc(C)cc3C)CC2)cc1            -8.27
 3  COc1ccc(C(=O)C2CCN(C(=O)c3ccc(C)cc3)CC2)cc1            -47.7
 4  COc1ccc(C(=O)C2CCN(C(=O)c3ccc(F)cc3)CC2)cc1             2.02
 5  COc1ccccc1NS(=O)(=O)c1cccc(C(=O)NCC(c2ccco2)N2CCCCC2)c1 (centres unmarked)           -0.284
 6  CC(=O)c1ccc(C(=O)NC2CC(C)(C)Cc3c2cnn3-c2ccccc2)cc1 (centres unmarked)             5.88
 7  COc1ccc(C(=O)N2CCC(C(=O)c3ccc(F)cc3)CC2)cc1            -66.1
 8  COc1cc(OC)cc(C(=O)N2CCC(C(=O)c3ccc(F)cc3)CC2)c1            -1.28
 9  Cn1cc(-c2nnnn2-c2ccc(Cl)cc2)c(=O)c2ccccc21            -66.3
10  Cc1ccc(CN2C(=O)CCC2C(=O)NCc2ccccc2Cl)cc1 (centres unmarked)             7.62
11  COc1ccc(-n2ncc3c2CC(C)(C)CC3NC(=O)CCn2cncn2)cc1 (centres unmarked)            -5.06
12  CC1(C)Cc2c(cnn2-c2ccc(F)cc2)C(NC(=O)c2ccoc2)C1 (centres unmarked)            -95.7
13  CC1(C)Cc2c(cnn2-c2ccccc2)C(NC(=O)c2ccc[n+]([O-])c2)C1 (centres unmarked)             8.68
14  CC1(C)Cc2c(cnn2-c2ccc(F)cc2)C(NC(=O)CCn2cncn2)C1 (centres unmarked)            -40.7
15  Cc1cccc(OCC(=O)Nc2ccc(S(=O)(=O)Nc3ccccn3)cc2)c1             17.3
16  CC1(C)C2CC=C(/C=N/NC(=O)C(N)=O)C1C2 (centres unmarked)             10.3
17  CC1(C)Cc2c(cnn2-c2ccccc2)C(NC(=O)c2ccoc2)C1 (centres unmarked)            -91.7
18  CCn1cc(-c2nnnn2-c2ccc(Cl)cc2)c(=O)c2ccccc21            -16.3
19    Cn1cc(-c2nnnn2-c2ccccc2)c(=O)c2ccccc21             1.73
20    O=C(O)C1=C[C@H](C2CC2)C[C@H](OCCCCO)O1             12.3
